- studyTarget: Rap guanine nucleotide exchange factor 4 (Homo sapiens) (UniProt Q8WZA2)
- Sequence (Q8WZA2 whole entry, looked up): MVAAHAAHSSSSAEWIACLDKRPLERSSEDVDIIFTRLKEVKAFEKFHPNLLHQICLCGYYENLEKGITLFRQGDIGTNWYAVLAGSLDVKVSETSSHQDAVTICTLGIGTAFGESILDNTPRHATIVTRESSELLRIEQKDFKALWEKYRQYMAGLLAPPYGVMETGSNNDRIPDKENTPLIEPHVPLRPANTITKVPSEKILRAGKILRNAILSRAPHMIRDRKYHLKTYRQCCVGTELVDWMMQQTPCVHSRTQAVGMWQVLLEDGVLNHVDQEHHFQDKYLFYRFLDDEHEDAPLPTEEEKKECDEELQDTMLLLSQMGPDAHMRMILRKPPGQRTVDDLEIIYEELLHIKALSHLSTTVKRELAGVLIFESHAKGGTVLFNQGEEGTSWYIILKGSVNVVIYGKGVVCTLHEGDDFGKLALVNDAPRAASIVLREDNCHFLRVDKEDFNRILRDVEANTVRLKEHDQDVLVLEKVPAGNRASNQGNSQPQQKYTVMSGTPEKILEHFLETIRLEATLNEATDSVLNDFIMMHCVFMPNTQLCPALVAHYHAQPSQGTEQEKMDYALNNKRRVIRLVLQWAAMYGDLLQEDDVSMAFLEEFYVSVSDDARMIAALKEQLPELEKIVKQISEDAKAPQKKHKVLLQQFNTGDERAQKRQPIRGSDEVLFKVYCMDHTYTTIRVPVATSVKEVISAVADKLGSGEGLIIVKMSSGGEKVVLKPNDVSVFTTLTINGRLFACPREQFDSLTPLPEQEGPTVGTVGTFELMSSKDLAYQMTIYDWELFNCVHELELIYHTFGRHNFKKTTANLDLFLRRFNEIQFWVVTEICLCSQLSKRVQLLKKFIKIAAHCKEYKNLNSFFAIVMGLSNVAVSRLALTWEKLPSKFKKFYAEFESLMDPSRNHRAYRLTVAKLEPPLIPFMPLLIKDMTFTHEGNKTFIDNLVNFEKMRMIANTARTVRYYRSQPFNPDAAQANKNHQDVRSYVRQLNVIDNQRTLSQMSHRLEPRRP
- protocolText: Confirmatory qHTS for antagonist of cAMP-regulated guanine nucleotide exchange factor 4 (EPAC2) (AID 1645885); also: nearly all actives have a fitted effect of over 25% in size
- assayConditions: EPAC2 Rap1B-BODIPY-GDP exchange fluorescence, biochemical; series mostly up to 12.7 µM
Records with an inconclusive call do not appear. Activity calls are given as the source filed them. Calls follow the shape of the dose curve; as a rule, active = well fitted inhibition curve with a large enough effect; inconclusive = small, poorly fitted or top-dose-only effect; inactive = no such curve, though single readings can be large or run the other way.
Outcome codes: label 1 = active, label 0 = inactive

| molecule | label |
| --- | --- |
| CCC(COC)Oc1cc(NCc2ccccc2)c2ncn(C(C)C)c2c1 (stereo not given) | label 0 |
| O=C(N/N=C/c1coc2ccc(Cl)cc2c1=O)c1cc(O)cc(O)c1 | label 0 |
| C=CCc1ccccc1OCCSc1nc(-c2ccccc2F)nc2cc(=O)[nH]n12 | label 0 |
| O=C(Nc1ccccc1C(=O)O)c1cccc(S(=O)(=O)Nc2ccc(Br)cc2)c1 | label 1 |
| COc1ccc(Cl)cc1NC(=O)CN1CCc2ccccc21 | label 0 |
| CCOc1ccc(CCN2C(=O)C(=O)N([C@@H](CC(C)C)CN3CCC[C@@H]3CN3C(=O)C(=O)NC[C@@H]3Cc3ccccc3)C[C@@H]2CC(C)C)cc1 | label 1 |
| CC(=O)N1CCC2(CCCN(c3ccc(-c4ccccc4)cc3)C2)CC1 | label 0 |
| Cc1ccc(CN(C(=O)COc2cc(C)c(Cl)c(C)c2)c2ccccn2)o1 | label 0 |
| COc1ccc(OC)c(NC(=S)N2c3ccccc3CC2C)c1 (stereo not given) | label 0 |
| Cc1ccc(NC(=O)CCC(=O)c2cccs2)nc1 | label 0 |
| CC1(C)CC2CC(C)(CN2C(=O)c2cc(-c3ccccc3O)on2)C1 (stereo not given) | label 0 |
| COc1cc(C2CC(=O)Oc3cc(C)cc(C)c32)cc(OC)c1OC (stereo not given) | label 1 |
| CCc1ccc(C=C2SC(=S)N(CCCC(=O)Nc3ccc(C(=O)O)cc3)C2=O)cc1 | label 0 |
| COc1ccc(S(=O)(=O)Nc2ccc(F)cc2)c(C)c1C | label 1 |
| CC(=O)Nc1ccc(S(=O)(=O)/N=C2/NC(=O)/C(=C\c3ccco3)S2)cc1 | label 1 |
| Cc1cc(C)nc(SCC(=O)c2ccc(C)c(C)c2)n1 | label 1 |
| O=C(COC(=O)c1ccc([N+](=O)[O-])s1)NCc1ccccc1 | label 0 |
| Cc1nc2ccccc2c2oc(C(=O)Nc3ccc4c(c3)OCCO4)cc12 | label 0 |
| O=c1onc(-c2ccccc2)n1-c1cc(Cl)cc(Cl)c1 | label 0 |
| Cc1cccc(C)c1OC(=O)c1ccccc1 | label 0 |
| CC1=NOC(=O)/C1=C\c1ccc(-c2ccccc2Br)o1 | label 0 |
| Cc1ccn2cc(-c3cccc(NC(=O)c4cccs4)c3)nc2c1 | label 0 |
| CCCN(CCC)c1ccc(/C=C/c2ccnc3ccccc23)cc1 | label 0 |
| CCC(=C(c1ccc(OC)cc1)c1ccc(OC)cc1)c1cn(CC(O)CN2CCN(C)CC2)c2ccccc12 (stereo not given) | label 0 |
| CC(C)c1cccc(-c2ccc3c(c2)S(=O)(=O)c2cccc(C(=O)O)c2C3=O)c1 | label 0 |

// provenance: PubChem BioAssay (NCATS)
